molecular target: T1, human ROR1 (full-length, on the cell surface) (human, UniProt Q01973 30-937); experiment: flow cytometry, HT-29 cells
T1 construct: whole, on cells; the tumour cell lines carry their own ROR1; also called Ba/F3-ROR1 cells; Jeko-1
T1 sequence (Q01973 30-937): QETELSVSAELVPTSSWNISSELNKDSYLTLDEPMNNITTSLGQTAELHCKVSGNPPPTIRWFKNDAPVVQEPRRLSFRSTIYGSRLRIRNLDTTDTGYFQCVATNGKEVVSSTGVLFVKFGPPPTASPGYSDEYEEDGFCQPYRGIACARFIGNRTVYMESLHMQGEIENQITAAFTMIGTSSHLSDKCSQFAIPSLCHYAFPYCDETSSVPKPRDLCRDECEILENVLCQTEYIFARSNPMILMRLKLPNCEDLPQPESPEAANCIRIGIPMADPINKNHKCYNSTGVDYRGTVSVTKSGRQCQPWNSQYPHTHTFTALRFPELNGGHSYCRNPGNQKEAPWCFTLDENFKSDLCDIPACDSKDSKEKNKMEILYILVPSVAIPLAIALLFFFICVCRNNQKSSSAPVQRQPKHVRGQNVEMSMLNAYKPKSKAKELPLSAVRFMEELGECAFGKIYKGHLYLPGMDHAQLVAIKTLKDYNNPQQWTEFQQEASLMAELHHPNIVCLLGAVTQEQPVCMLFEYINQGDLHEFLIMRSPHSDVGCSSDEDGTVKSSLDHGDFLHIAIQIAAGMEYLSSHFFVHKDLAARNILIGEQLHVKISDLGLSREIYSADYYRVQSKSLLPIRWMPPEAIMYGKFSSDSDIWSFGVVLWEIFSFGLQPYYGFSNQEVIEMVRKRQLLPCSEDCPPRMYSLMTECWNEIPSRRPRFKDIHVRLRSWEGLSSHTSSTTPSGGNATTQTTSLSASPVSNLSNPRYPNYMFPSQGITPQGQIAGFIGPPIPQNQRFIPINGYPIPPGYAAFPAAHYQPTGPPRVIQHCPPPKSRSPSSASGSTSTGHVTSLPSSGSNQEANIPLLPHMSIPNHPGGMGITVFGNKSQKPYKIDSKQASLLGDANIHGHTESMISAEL
REPORTED PROPERTY: pEC50
// field semantics: pEC50 = negative decimal log of concentration (mol/L)

[in] Query (binder): 19F6-Hu24 (antibody, human IgG1, kappa, V domains shown, humanized, human IgG1 / kappa) VH: QVQLQESGPGLVKPSETLSLTCTVSGYSITSDYAWNWIRQPPGKGLEWMGYISYSGSIRYNPSLKDRITISRDTSKNQFSLKLSSVTAADTAVYYCARGEITYYFDYWGQGTLVTVSS VL: DIQMTQSPSSLSASVGDRVTITCQTSTDIDDDLNWYQQKPGKPPKLLISEGNTLETGVPSRFSGSGSGTDFTFTISSLQPEDIADYYCLQSNDLPLTFGAGTKLEIKR ; field requested: pEC50
[out] 9.60

[in] Query (binder): 38F8-Hu54 (antibody, human IgG1, kappa, V domains shown, humanized, human IgG1 / kappa) VH: EVQLVESGGGLVQPGGSLRLSCAASGFTFSNYAMSWVRQAPEKRLEWVASISSGGPTYYPDSVKGRFTVSRDNSKNTLYLQMNSLRAEDTAVYYCARGYRYDVNWYFDVWGAGTMVTVSS VL: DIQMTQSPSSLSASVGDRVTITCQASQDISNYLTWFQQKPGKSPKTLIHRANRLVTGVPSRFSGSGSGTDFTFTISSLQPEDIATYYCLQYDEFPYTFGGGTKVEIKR ; field requested: pEC50
[out] 9.31

[in] Query (binder): 3D8-Hu56 (antibody, human IgG1, kappa, V domains shown, humanized, human IgG1 / kappa) VH: EVQLVESGGGLVQPGGSLRLSCAASGFTFSSYAMSWVRQAPGKGLEWVSSINSGGSTYYPDSVKGRFTISRENAKNSLYLQMNSLRAGDTAVYYCARVNYYGYGDYAMDYWGQGTLVTVSS VL: DIQMTQSPSSLSASVGDRVTITCQASQDINSYLSWFQQKPGKSPKTLIYRANRLVTGVPSRFSGSGSGTDYTFTISSLQPEDIATYYCLQYDEFPYTFGGGTKLEIKR ; field requested: pEC50
[out] 9.54

// data source = patent US20240018237A1
